Some binders, each annotated with its measured absorbance 490 nm/630 nm.
molecular target: T1, Ala mutant having 3-amino acid substitution, SEQ ID NO: 44 (human); assay: ELISA, peptide on plate (10 ug/mL)
T1 sequence (peptide): AAAMDDQWMQDEMEIGY

{"binder": "E9 (antibody, IgG1, V domains shown) VH: AVTLDESGGGLQTPGGTLSLVCKGSGFTFSSYGMGWMRQAPGKGLEYVAAIRNDGSWTGYGSAVKGRATISRDNGQSTVRLQLNNLRAEDTATYYCAKTSGSSGGSVDAWGHGTEVIVS VL: ASTQPSSVSANLGGTVEITCSGGGRYYYGWYQQKSPGSAPVTVIYANDKRPSDIPSRFSGSKSGSTGTLTITGVQAEDEAVYFCGSAETSSYVFGAGTTLTVL", "readoutUnit": "OD", "absorbance 490 nm/630 nm": 1.9}
{"binder": "H7 (antibody, IgG1, V domains shown) VH: AVTLDESGGGLQTPGGALSLVCKASGFTFSTYAMGWMRQAPGKGLEYVAAIRNDGSWTGYGAAVKGRATILRDNGQSTVRLQLSNLRAEDTGTYYCAKYTGSSGGSIGAWGHGTEVIVS VL: ASTQPSSVSANPGGTVEITCSGGSGRYYYGWYQQKSPGSAPVTVIYSSTHRPSNIPSRFSGSKSGSTATLTITGVQAEDEAVYFCGTADSSSYVFGAGTTLTVL", "readoutUnit": "OD", "absorbance 490 nm/630 nm": 1.9}
{"binder": "G9 (antibody, IgG1, V domains shown) VH: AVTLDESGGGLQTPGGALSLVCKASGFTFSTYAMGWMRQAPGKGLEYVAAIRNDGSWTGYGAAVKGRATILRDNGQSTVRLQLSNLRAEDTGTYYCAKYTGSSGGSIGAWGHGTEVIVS VL: AVTQPASVSANLGGTVEITCSGGGRYYYGWYQQKSPGSAPVTVIYANDKRPSDIPSRFSGSKSGSTGTLTITGVQAEDEAVYFCGSAETSSYVFGAGTTLTVL", "readoutUnit": "OD", "absorbance 490 nm/630 nm": 1.92}
{"binder": "A11 (antibody, IgG1, V domains shown) VH: AVTLDESGGGLQTPGGALSLVCKASGFDFSSYGMGWMRQAPGKGLEYVAAIRNDGSWTGYGAAVKGHATISRDNGQSTVRLQLNNLRAEDTGTYYCAKTTGSRGGSIDAWGHGTEVIVS VL: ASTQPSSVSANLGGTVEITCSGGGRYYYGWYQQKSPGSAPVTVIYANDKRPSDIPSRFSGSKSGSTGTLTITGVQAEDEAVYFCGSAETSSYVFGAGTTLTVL", "readoutUnit": "OD", "absorbance 490 nm/630 nm": 1.98}
{"binder": "G6 (antibody, IgG1, V domains shown) VH: AVTLDESGGGLQTPGGALSLVCKASGFTFSSYGMEWVRQAPGKGLEYVAAIRNDGSWTGYGAAVKGRATISRDDGQSTLRLQLNNLRAEDTATYYCAKTTGSSGGSIDAWGHGTEVIVS VL: ASTQPSSVSANLGETVKITCSGGGNYYYGWYQQKSPGSAPVTLIYANDKRPSNIPSRFSGSKSGSTGTLTITGVQAEDEAVYFCGTADTGKYVFGAGTTLTVL", "readoutUnit": "OD", "absorbance 490 nm/630 nm": 1.92}
{"binder": "G8 (antibody, IgG1, V domains shown) VH: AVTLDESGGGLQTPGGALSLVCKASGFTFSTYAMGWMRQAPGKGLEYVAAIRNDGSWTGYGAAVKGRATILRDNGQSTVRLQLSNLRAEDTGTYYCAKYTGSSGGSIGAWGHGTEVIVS VL: ASTQPSSVSANLGGTVEITCSGGNRNYYYGWYQQKSPGSAPVTLIYANDKRPSNIPSRFSGSKSGSTGTLTITGVQAEDEAVYFCGTADTGKYVFGAGTTLTVL", "readoutUnit": "OD", "absorbance 490 nm/630 nm": 1.9}
